B1: ATL3 (parent)
chain: HFKKTKKMGGKDFSFRYQQELEEE

# Variants of: B1
# measurement.notes: protein stability index of a GFP-peptide fusion (GPS, HEK-293T) (PSI 1-6); higher = more stable;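 further: lentivirally expressed fusions sorted by FACS into six bins by GFP to DsRed ratio, PSI derived from sequencing read proportions per bin multiplied by bin number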
# cond: c terminus: a fixed tail appended
measurement.label: protein stability index
The response must contain the number and no unit.

Look over these answered cases.
# variant.string, protein stability index
measured = [
    ("K11A", 2.69),
    ("K6H", 1.52),
    ("F15E", 1.39),
]

Query: Read the entry `F15N` and write its reported protein stability index.
Reply: 1.66

Query: Provide measured protein stability index value, entry: `K6Y`
Reply: 2.38

Query: Answer with the recorded protein stability index of `E23H` only.
Reply: 2.02

Query: Output measured protein stability index for this item: `F13I`
Reply: 4.91

Query: For `Q18T` , write its protein stability index.
Reply: 2.27
